target under test: T1, mutant human CD20 #10 (A157V) (human, UniProt P11836 1-297)
T1 construct: Stably expressed on MG87 cells
T1 sequence: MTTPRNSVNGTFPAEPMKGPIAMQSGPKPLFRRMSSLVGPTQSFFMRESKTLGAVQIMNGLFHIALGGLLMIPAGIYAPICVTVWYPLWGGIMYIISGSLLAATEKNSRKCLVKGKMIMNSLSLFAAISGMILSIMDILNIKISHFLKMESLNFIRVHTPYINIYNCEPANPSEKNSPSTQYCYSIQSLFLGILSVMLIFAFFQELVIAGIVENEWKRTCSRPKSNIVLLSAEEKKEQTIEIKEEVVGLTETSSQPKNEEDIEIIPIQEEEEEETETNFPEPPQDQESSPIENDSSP
experimental protocol: FACS, mutant-hCD20 MG87 cells; 100%=best antibody
Rule: True for Percent of Binding to Mutant Human CD20 not less than 80%, False for anything less.

binder	label
6F6-1 (antibody, V domains shown, Fully human IgG, constant region not specified; also called 6F6-1N) VH: AVQLVESGGGLVQPGRSLRLSCAASGFTFRDYAMHWVRQGPGKGLEWVSGISWNTDYIGYADSVKGRFTISRDNAKNSLYLQMNSLRPEDTALYYCAKDARYGRDNYYGMDVWGQGTTVTVSS VL: EIVMTQSPATLSVSPGERATLSCRASQSVSHNLAWYQQKPGQAPRLLIYGAYTRATGIPDRFSGTGSGTEFTLTISSLQSEDFAVFYCQQYNNWPLTFGGGTKVEIK	True
10F2-13 (antibody, V domains shown, Fully human IgG, constant region not specified; also called 10F2-13N; ab 10F2-13) VH: EEQLVESGGDLVQPGRSLRLSCAASGFTFHDYTMHWVRQAPGKGLEWVSGISWNSGSLGYADSVKGRFTISRDNAKKSLYLQMNSLRAEDTALYYCAKDPSYGSGSYHSYYGMDVWGQGTTVTVSS VL: EIVLTQSPATLSLSPGERATLSCWASQSISRYLVWYQQKCGQAPRLLIYEASKRATGIPVRFSGSGSGTDFTLTISSLESEDFAVYYCQQRFNWPLTFGGGTKVEIK	True
2C11-4 (antibody, V domains shown, Fully human IgG, constant region not specified; also called 2C11-4N) VH: EVQLVESGGGLVQPGRSLRLSCAASGFTFRDYAMHWVRQGPGKGLEWVSGISWNTDYIGYADSVKGRFTISRDNAKNSLYLQMNSLRPEDTALYYCAKDARYGRDNYYGMDVWGQGTTVTVSS VL: EIVLTQSPATLSLSPGERATLSCRASQSVSRYLAWYQQKPGQAPRLLIHDASNRATGIPARFSGSGSGTDFTLTITSLEPEDFVVYYCQQRSDWPITFGQGTRLEIK	False
8G6-5 (antibody, V domains shown, Fully human IgG, constant region not specified; also called 8G6-5N) VH: EVQLAESGGDLVQSGRSLRLSCAASGITFHDYAMHWVRQPPGKGLEWVSGISWNSDYIGYADSVKGRFTISRDNAKKSLYLQMNSLRPDDTALYYCVKDFHYGSGSNYGMDVWGQGTTVTVSP VL: EIVMTQSPATLSMSPGERATLSCRASQSVSRNLAWYQQKVGQAPRLLISGASTRATGIPARFSGSGSGTEFTLTINSLQSEDFAVYYCQQSNDWPLTFGQGTRLEIK	True
6B9-4 (antibody, V domains shown, Fully human IgG, constant region not specified; also called 6B9-4N) VH: EEQLVESGGDLVQPGRSLRLSCAASGFTFHDYTMHWVRQAPGKGLEWVSGISWNSGSIGYADSVKGRFTISRDNAKNSLYLQMNSLRIEDTALYYCAKDPSYGSGSYYYYYGMDVWGQGTTVTVSS VL: EIVLTQSPATLSLSPGERATLSCRASQSVSSYLVWYQQRPGQAPRLLIYEASNRATGIPARFSGSGSGTDFTLTISSLESEDFAVYYCQQRSNWPLTFGGGTKVEIK	False
9C11-14 (antibody, V domains shown, Fully human IgG, constant region not specified; also called 9C11-14N) VH: QVQLVESGGDSVKPGGSLRLSCAASGFTFSDSYMTWIRQAPGKGLEWVSFISSSGSTIYYADSVKGRFTISRDNVKKSLYLQMNRLRAEDTAVYYCAREEPGNYVYYGMDVWGQGTTVTVSS VL: EIVVTQSPATLSLSPGERATLSCRTSQTTTSYLAWYRQKPGQAPRLLIYDASNRAAGIPARFSGSGSGTDFTLTINSLEPEDFAVYYCQLRTNWITFGQGTRLEIK	True
10E3-17 (antibody, V domains shown, Fully human IgG, constant region not specified; also called 10E3-17N) VH: EVQLVESGGGLVQPGRSLRLSCAASGFTFRDYAMHWVRQVPGKGLEWVSGISWNRGTIGYADSVKGRFTISRDNAKNSLFLQMNSLRADDTALYYCAKDHYYGSGSPYGMDVWGQGTTVTVSS VL: EIVLTQSPATLALSPGERATLSCRASQSVSKYLAWYQQKPGQAPRLLIYDASKRVTGIPGRLSGSGSGTDFTLTISSLEPEDFALYYCQQSSNWPITFGQGTRVEIK	True
2B7-7 (antibody, V domains shown, Fully human IgG, constant region not specified; also called 2B7-7N) VH: EVQLVESGGGLVQPGRSLRLSCAASGFTFRDYTMHWVRQGPGKGLEWVSGISWNSDYIGYADSVKGRFTISRDNAKNSLYLQMNSLRVEDTALYYCAKLSGTYRDYFYGVDVWGQGTTVTVSS VL: EIVLTQSPATLSLSPGERAALSCRASQSVSNYLAWYQQKPGQAPRLLIYDASNRATGIPARFSGSGSGTDFTLTISSLEPEDFAVYYCQQRSNWPLTFGGGTKVEIR	True
9H4-12 (antibody, V domains shown, Fully human IgG, constant region not specified; also called 9H4-12N) VH: EVQLVESGGGLVQPGRSLRLSCAASGFTFDDYAMHWVRQVPGKGLEWVSGISWNSGSIGYADSVKGRFTISRDNAKNSLYLQMNSLRAEDTALYYCAKDMGYGNYYHYGMDVWGQGTTVTVSS VL: DIVLTQSPATLSLSPGERATLSCRASQSVSSYLAWYQQKPGQAPRLLICDASHRATRIPARFSGSGSGTDFTLTISSLEPEDFAVYYCQQRSNWPITFGQGTRLEIK	False
